These entries and their values trace back to patent US5519155A.

Recorded pIC50 values for a group of compounds are listed next.
# System: 41M
# assay protocol: In vitro cytotoxicity (SRB assay), human ovarian carcinoma line 41M
# Type: cell-based
# details: 41M cells, exposure 48 to 96 hours
Keep it numeric: pIC50 is minus log10 of the concentration in mol/L.

Query: // returns reported pIC50 for input CC(C)N.CC(C)N.C[O][Pt]([OH])([O]C(C)=O)[O]C(C)=O [Example 7]
Result: 5.51

Query: // returns reported pIC50 for input CC(=O)[O][Pt]([OH])([Cl])[O]C(C)=O.CC(C)N.CC(C)N [Example 4, c,t,c-[PtCl(OH)(OAc)2 (i-C3 H7 NH2)2]]
Result: 6.05

Query: // returns reported pIC50 for input CC(=O)[O][Pt]([OH])([Cl])[O]C(C)=O.N.NC1CCCCC1 [Example 6]
Result: 6.62

Query: // returns reported pIC50 for input CCCC(=O)[O][Pt]([Cl])([O]C)[O]C(=O)CCC.N.NC1CCCCC1 [Example 1]
Result: 8.00

More entries:
Query: // returns reported pIC50 for input CC(=O)[O][Pt]([OH])([OH])[O]C(C)=O.N.NC1CCCCC1 [Example 2]
Result: 5.19
